- Experimental Details: Partition coefficient, log P by HPLC
- Assay type: physicochemical
- Measurement Setup: octanol/water
Assay Readout: logP
// keep it numeric: no unit symbol after the value

What the record says about `O=[N+]([O-])c1nccn1[C@H]1O[C@H](CO)[C@@H](O)[C@H]1F` : logP is 1.08

What the record says about `O=[N+]([O-])c1nccn1[C@H]1O[C@H](CF)[C@@H](O)[C@@H]1O` : logP is 1.1
